target: ePL tagged IDO1 (Homo sapiens, UniProt P14902); construct: expressed in transfected cells; host or cells: HeLa cells transduced with BacMam virus; test: CETSA (Cellular Thermal Shifting assay) in Hela cells; assay type: binding; conditions: BacMam ePL tagged IDO1, 3 hours at 37° C., heated at 53° C. for 3 min, read-out: pXC50_1 (converted)
Sequence (P14902 whole entry): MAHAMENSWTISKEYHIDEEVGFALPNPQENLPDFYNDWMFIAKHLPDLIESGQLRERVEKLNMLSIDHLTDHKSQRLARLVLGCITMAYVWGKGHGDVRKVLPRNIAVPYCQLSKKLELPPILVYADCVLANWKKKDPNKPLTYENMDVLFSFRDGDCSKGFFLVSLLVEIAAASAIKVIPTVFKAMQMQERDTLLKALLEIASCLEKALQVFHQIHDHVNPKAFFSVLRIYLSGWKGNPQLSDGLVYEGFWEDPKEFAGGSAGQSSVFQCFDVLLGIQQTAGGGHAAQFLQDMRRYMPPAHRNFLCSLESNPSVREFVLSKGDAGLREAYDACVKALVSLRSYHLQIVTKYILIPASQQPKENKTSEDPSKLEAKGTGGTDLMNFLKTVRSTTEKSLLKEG
measuredQuantity: EC50 (nM)
Provide the reading as a plain figure in nM.

q: Give EC50 for this entry on ePL tagged IDO1 (Homo sapiens, UniProt P14902): CC(C)CN(c1ccc([C@H](C)CC(=O)O)cc1Nc1nc(C(F)(F)F)ns1)C1CCOCC1
a: 9.55

q: Give EC50 for this entry on ePL tagged IDO1 (Homo sapiens, UniProt P14902): CC(C)CN(c1ccc([C@H](C)CC(=O)O)cc1Nc1ccc(Cl)nn1)C1CCOCC1
a: 112

q: Give EC50 for this entry on ePL tagged IDO1 (Homo sapiens, UniProt P14902): CC(C)CC(=O)N1CCC(N(CC(C)C)c2ccc([C@H](C)CC(=O)O)cc2Nc2nc(C(F)(F)F)ns2)CC1
a: 72.4

q: Give EC50 for this entry on ePL tagged IDO1 (Homo sapiens, UniProt P14902): CC(C)CN(c1ccc([C@H](C)CC(=O)O)cc1Nc1ccc(C#N)cn1)C1CCOCC1
a: 257

* * *

molecular target: UniProt P14902; assay: IDO1 HeLa RapidFire MS assay (kynurenine detection by mass spectrometry); format: cell-based; set-up: to induce the expression of indoleamine 2, 3-dioxygenase (IDO1); details: HeLa cells, pIC50, read-out: IDO1_HELA_PXC50 (converted)
Form field: IC50 (one value per entry).
Provide the reading as a plain figure in nM.

Answered cases to consult:
q: Query IC50 for CC(C)CN(c1ccc(C(C)CC(=O)O)cc1NC1COC1)C1CCCCC1 (stereo not shown)
a: 1580

q: Query IC50 for CC(C)CN(CC(C)C)c1ccc(-c2ccccc2C(=O)O)cc1Nc1nc(C2CC2)ns1
a: 316

q: Query IC50 for CC(C)CN(CC(C)C)c1ccc([C@@H]2C[C@@H]2C(=O)O)cc1Nc1nc(C(F)(F)F)ns1 (single isomer, unassigned) [example 209]
a: 20

q: Query IC50 for COc1ccc2[nH]c(Nc3cc(-c4ccccc4C(=O)O)ccc3N(CC(C)C)C3CCCCC3)nc2c1
a: 7.94

q: Query IC50 for CO[C@H]1CC[C@@H](N(CC(C)C)c2ccc(-c3ccccc3C(=O)O)cc2Nc2nc(C(F)(F)F)ns2)CC1
a: 3.98

Continuing:
q: Query IC50 for CC(C)CN(c1ccc(C(C)CC(=O)O)cc1NC1=N[C@@H](C)CO1)C1CCCCC1 (stereo partly shown)
a: 3160

* * *

test system: human peripheral blood mononuclear cells (PBMC); experiment: PBMC cytotoxicity assay (CellTiter-Glo); type: cell-based; details: 2 days, pCC50
measuredQuantity: PBMC TOX PXC50

Answered cases to consult:
q: Query PBMC TOX PXC50 for CC[C@@H](CC(=O)O)c1ccc(N(CC(C)C)C2CCCCC2)c(Nc2nc(Cl)ns2)c1
a: 5.1

q: Query PBMC TOX PXC50 for CC(C)CN(c1ccc([C@H](C)CC(=O)O)cc1Nc1n[nH]c(Cl)n1)C1CCOCC1
a: <5

q: Query PBMC TOX PXC50 for CC(C)CN(CC(C)C)c1ccc(C2CC2C(=O)O)cc1Nc1nc(Cl)ns1 (stereo not shown)
a: <5

Continuing:
q: Query PBMC TOX PXC50 for CC(C)CN(c1ccc([C@H](C)CC(=O)O)cc1Nc1cnc(C(F)(F)F)nc1)C1CCOCC1
a: <5

q: Query PBMC TOX PXC50 for CC(C)CN(c1ccc(C(C)CC(=O)O)cc1NC1=N[C@@H](C(F)(F)F)CS1)C1CCCCC1 (stereo partly shown)
a: <5

q: Query PBMC TOX PXC50 for CC[C@H](CC(=O)O)c1ccc(N(CC(C)C)CC(C)C)c(Nc2nc(C(F)(F)F)ns2)c1
a: <5

q: Query PBMC TOX PXC50 for CC(C)CN(c1ccc(C(C)CC(=O)O)cc1Nc1nnc(C(N)=O)s1)C1CCCCC1 (stereo not shown)
a: <5

q: Query PBMC TOX PXC50 for CC(C)CN(CC(C)C)c1ccc(C(C)CC(=O)O)cc1Nc1nc(-c2ccccc2)ns1 (stereo not shown)
a: 4.9

q: Query PBMC TOX PXC50 for CC(C)CN(c1ccc([C@H](C)CC(=O)O)cc1Nc1ncc(C#N)cn1)C1CCOCC1
a: <5

q: Query PBMC TOX PXC50 for CNC(=O)c1n[nH]c(Nc2cc([C@H](C)CC(=O)O)ccc2N(CC(C)C)C2CCOCC2)n1
a: <5

q: Query PBMC TOX PXC50 for CC(C)CN(c1ccc([C@H](C)CC(=O)O)cc1Nc1ccc(Cl)nc1)C1CCCCC1
a: 6.5

q: Query PBMC TOX PXC50 for CC(C)CN(c1ccc(-c2ccncc2C(=O)O)cc1Nc1nc(C(F)(F)F)ns1)C1CCOCC1
a: <5

q: Query PBMC TOX PXC50 for CC(C)CN(c1ccc([C@H](C)CC(=O)O)cc1Nc1ccc(Cl)nc1)[C@H]1CC[C@H](O)CC1
a: <5

The measured values listed here are drawn from patent US10899754B2.
